biological target: S. clavuligerus expandase (Streptomyces clavuligerus, UniProt P18548); construct: endogenous in cells; host or cells: S. clavuligerus mutant NP1, crude cell-free extract; experiment: Penicillin ring expansion by cell-free S. clavuligerus expandase extracts, paper disc-agar diffusion bioassay; type: biochemical; conditions: 4 mg/ml extract protein, 2 mg/ml substrate, 2 hours of reaction, 250 μl in bioassay (E. coli ESS, penicillinase)
Sequence (P18548 whole entry, the tested form may be a part): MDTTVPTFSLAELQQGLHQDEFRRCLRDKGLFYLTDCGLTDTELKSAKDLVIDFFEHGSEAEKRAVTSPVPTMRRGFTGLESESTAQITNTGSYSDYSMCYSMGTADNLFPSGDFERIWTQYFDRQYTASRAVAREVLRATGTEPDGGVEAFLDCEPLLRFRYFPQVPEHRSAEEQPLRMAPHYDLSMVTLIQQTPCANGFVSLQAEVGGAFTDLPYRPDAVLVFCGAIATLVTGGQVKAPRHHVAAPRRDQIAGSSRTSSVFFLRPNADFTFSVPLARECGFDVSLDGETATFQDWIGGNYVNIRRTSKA
endpoint: Inhibition Zone Diameter (mm)
Give the value, in units of mm, as a plain number.

Ask: Tell me the measured Inhibition Zone Diameter of CCCC(=O)NC1C(=O)N2C1SC(C)(C)C2C(=O)O (stereo not shown) , please.
Reply: 17.5

Ask: Try this molecule next: CCCCCCC(=O)NC1C(=O)N2[C@@H]1SC(C)(C)[C@@H]2C(=O)O (stereo partly shown)
Reply: 16.5

Ask: Repeat for the following molecule: CC1(C)S[C@@H]2[C@H](NC(=O)[C@H](N)c3ccccc3)C(=O)N2[C@H]1C(=O)O
Reply: 17

Ask: And for CCCCCCCCCC(=O)NC1C(=O)N2C1SC(C)(C)C2C(=O)O (stereo not shown) ?
Reply: 7

Ask: Now the same for CCCCCC(=O)NC1C(=O)N2[C@@H]1SC(C)(C)[C@@H]2C(=O)O (stereo partly shown)
Reply: 19.5

Ask: Proceed to CC1(C)S[C@@H]2[C@H](NC(=O)Cc3ccc(O)cc3)C(=O)N2[C@H]1C(=O)O
Reply: 30.5

Ask: Also need CC1(C)SC2C(NC(=O)Cc3cccs3)C(=O)N2C1C(=O)O (stereo not shown) , thanks.
Reply: 32

Ask: Next molecule: CCCCC(=O)NC1C(=O)N2[C@@H]1SC(C)(C)[C@@H]2C(=O)O (stereo partly shown)
Reply: 15

Ask: Try this molecule next: CC1(C)S[C@@H]2[C@H](NC(=O)COc3ccccc3)C(=O)N2[C@H]1C(=O)O
Reply: 7.5

Ask: Please do the same for CCCCCCCCC(=O)NC1C(=O)N2C1SC(C)(C)C2C(=O)O (stereo not shown) as well.
Reply: 10.5

Ask: Can you check CC1(C)S[C@@H]2[C@H](NC(=O)Cc3ccccc3)C(=O)N2[C@H]1C(=O)O next?
Reply: 29

Ask: Note, next up: CC/C=C/CC(=O)N[C@@H]1C(=O)N2[C@@H]1SC(C)(C)[C@@H]2C(=O)O
Reply: 21

Ask: // same read-out, input: CC1(C)S[C@@H]2[C@H](NC(=O)CCCCC(=O)O)C(=O)N2[C@H]1C(=O)O
Reply: 20
